Values compiled from the supplement of paper PMC7393113.

Measured mitochondrial superoxide by item
System: iBMDM (immortalised mouse bone-marrow-derived macrophages), LPS-stimulated
Assay: mitochondrial superoxide (MitoSOX fluorescence) fold increase over unstimulated control; higher = more LPS-induced mitochondrial ROS (less inhibition)
Conditions: inhibitor concentration: 500 nM; LPS: 100 ng/ml; time after LPS: 4 h
Could you respond with only the numeric value?

molecule: CS(=O)(=O)N1CCN(Cc2cc3nc(-c4cccc5[nH]ncc45)nc(N4CCOCC4)c3s2)CC1
mitochondrial superoxide: 1.6

Entry under test: O=C1c2ccc(Nc3ccc(F)cc3F)cc2CCc2ccc(OC[C@H](O)CO)cc21 [Skepinone-L] . Its mitochondrial superoxide was 1.62

Entry under test: `COc1ccc(Cl)cc1NC(=O)Nc1cc(C)nc2ccccc12` . Its mitochondrial superoxide was 1.65

Entry under test: `Cc1ccc(F)c(NC(=O)Nc2ccc(-c3cccc4[nH]nc(N)c34)cc2)c1` . Its mitochondrial superoxide was 1.83

Entry under test: `N#C/C(=C(/N)Sc1ccc(N)cc1)c1ccccc1C(F)(F)F` . Its mitochondrial superoxide was 1.51

Entry under test: `C=CC(=O)Nc1cccc(Nc2nc(Nc3ccc(N4CCN(C(C)=O)CC4)cc3OC)ncc2C(F)(F)F)c1` . Its mitochondrial superoxide was 1.65

Entry under test: CN1CCN(c2ccc3nc(-c4c(N)c5c(F)cccc5[nH]c4=O)[nH]c3c2)CC1 [Dovitinib (TKI-258, CHIR-258)] . Its mitochondrial superoxide was 1.91

Entry under test: CNC(=O)c1cc(Oc2ccc(NC(=O)Nc3cc(C(C)(C)C)nn3-c3ccc4ncccc4c3)c(F)c2)ccn1 [DCC-2036 (Rebastinib)] . Its mitochondrial superoxide was 1.6

###

Measured mitochondrial superoxide by item
Test system: iBMDM (immortalised mouse bone-marrow-derived macrophages), LPS-stimulated
Test: mitochondrial superoxide (MitoSOX fluorescence) fold increase over unstimulated control; higher = more LPS-induced mitochondrial ROS (less inhibition)
Conditions: inhibitor concentration: 500 nM; LPS: 100 ng/ml; time after LPS: 2 h
Could you respond with only the numeric value?

compound: COc1cc(Nc2nc3ccccc3nc2NS(=O)(=O)c2ccc(NC(=O)c3ccc(C)c(OC)c3)cc2)cc(OC)c1
assayedSystem: iBMDM (immortalised mouse bone-marrow-derived macrophages), LPS-stimulated
assayMetric: mitochondrial superoxide
reportedValue: 1.23
//
compound: COc1cc2ncnc(Nc3ccc(O)c(Br)c3)c2cc1OC
assayedSystem: iBMDM (immortalised mouse bone-marrow-derived macrophages), LPS-stimulated
assayMetric: mitochondrial superoxide
reportedValue: 1.04
//
compound: CN(C)Cc1cccc(N=C(c2ccccc2)c2c(O)[nH]c3cc(C(=O)N(C)C)ccc23)c1
assayedSystem: iBMDM (immortalised mouse bone-marrow-derived macrophages), LPS-stimulated
assayMetric: mitochondrial superoxide
reportedValue: 1.14

Entry under test: COc1cc2c(N3CCN(C(=O)Nc4ccc(OC(C)C)cc4)CC3)ncnc2cc1OCCCN1CCCCC1 [Tandutinib (MLN518)] . Its mitochondrial superoxide was 1.77

Entry under test: NC(=O)c1ncn([C@@H]2O[C@H](CO)[C@@H](O)[C@H]2O)c1N [Acadesine] . Its mitochondrial superoxide was 1.2

Entry under test: CC(C)CCN1c2nc(Nc3cc(F)c(O)c(F)c3)ncc2N(C)C(=O)C1C (centres undefined) . Its mitochondrial superoxide was 1.21

Entry under test: `C=CC(=O)Nc1cccc(Nc2nc(Nc3ccc(Oc4ccnc(C(=O)NC)c4)cc3)ncc2F)c1` . Its mitochondrial superoxide was 1.49

Entry under test: `O=Nc1c(-c2c(O)[nH]c3cc(Br)ccc23)[nH]c2ccccc12` . Its mitochondrial superoxide was 1.43

Entry under test: `CS(=O)(=O)N1CCc2c(-c3cnc(N)nc3)nc(N3CCOCC3)nc21` . Its mitochondrial superoxide was 1.48

Entry under test: `Cc1ccc(-c2nn(C(C)(C)C)c3ncnc(N)c23)cc1` . Its mitochondrial superoxide was 1.22

Entry under test: `Cc1ccc2nc(NCCN)c3ncc(C)n3c2c1` . Its mitochondrial superoxide was 1.48

Entry under test: `O=C(NCCCNc1nc(Nc2cccc(NC(=O)N3CCCC3)c2)ncc1I)c1cccs1` . Its mitochondrial superoxide was 1.18

Entry under test: `O=C(NC1CCNCC1)c1n[nH]cc1NC(=O)c1c(Cl)cccc1Cl` . Its mitochondrial superoxide was 1.15

Entry under test: COc1ccc(COc2cc3oc(=O)c4cc(C(C)O)ccc4c3cc2OC)cc1 (centres undefined) [Palomid 529 (P529)] . Its mitochondrial superoxide was 1.25

Entry under test: `Fc1cc(-c2cccc3ncc(-c4cnn(C5CCNCC5)c4)nc23)cc(F)c1CN1CCOCC1` . Its mitochondrial superoxide was 1.45

Entry under test: Nc1ncnc2c1c(-c1cccc(OCc3ccccc3)c1)cn2C1CC(CN2CCCC2)C1 (centres undefined) . Its mitochondrial superoxide was 1.55

Entry under test: `C=CC(=O)N1CCC[C@@H](n2nc(-c3ccc(Oc4ccccc4)cc3)c3c(N)ncnc32)C1` . Its mitochondrial superoxide was 1.32

Entry under test: Cn1cnc2c(F)c(Nc3ccc(Br)cc3Cl)c(C(=O)NOCCO)cc21 [Selumetinib (AZD6244)] . Its mitochondrial superoxide was 1.51

Entry under test: Nc1cc(C(F)(F)F)c(-c2cc(N3CCOCC3)nc(N3CCOCC3)n2)cn1 [BKM120 (NVP-BKM120, Buparlisib)] . Its mitochondrial superoxide was 1.41

###

Tested on: iBMDM (immortalised mouse bone-marrow-derived macrophages), LPS-stimulated
Assay: mitochondrial superoxide (MitoSOX fluorescence) fold increase over unstimulated control; higher = more LPS-induced mitochondrial ROS (less inhibition)
Settings: inhibitor concentration: 500 nM; LPS: 100 ng/ml; time after LPS: 4 h
Where a name gives a salt, the structure may show the parent alone.
Measured mitochondrial superoxide by item

Some entries whose results are on file:
compound: CNC(=O)c1cc(Oc2ccc(NC(=O)Nc3ccc(Cl)c(C(F)(F)F)c3)cc2)ccn1 [Sorafenib Tosylate]
mitochondrial superoxide: 1.73
//
compound: Cc1ccc(NC(=O)c2cccc(C(C)(C)C#N)c2)cc1Nc1ccc2ncn(C)c(=O)c2c1
mitochondrial superoxide: 1.35
//
compound: CNC(=O)c1ccccc1Sc1ccc2c(/C=C/c3ccccn3)n[nH]c2c1
mitochondrial superoxide: 1.8

Item `COc1cc2ncnc(Nc3ccc(Cl)cc3F)c2cc1OC` was tested on iBMDM (immortalised mouse bone-marrow-derived macrophages), LPS-stimulated; the reported mitochondrial superoxide is 1.27

Item `O=c1cc(N2CCOCC2)oc2c(-c3ccccc3)cccc12` was tested on iBMDM (immortalised mouse bone-marrow-derived macrophages), LPS-stimulated; the reported mitochondrial superoxide is 1.52

Item `CNC(=O)c1ccc(-c2cnc3ncc(Cc4ccc5ncccc5c4)n3n2)cc1F` was tested on iBMDM (immortalised mouse bone-marrow-derived macrophages), LPS-stimulated; the reported mitochondrial superoxide is 1.58

Item `Cc1c(Cn2c(C)nc3c(C(=O)O)cc(N4CCOCC4)cc32)cccc1C(F)(F)F` was tested on iBMDM (immortalised mouse bone-marrow-derived macrophages), LPS-stimulated; the reported mitochondrial superoxide is 1.61

Item CCN(CC)CCCC(C)Nc1nc(C)cc(Nc2ccc3nc(C)cc(N)c3c2)n1 (stereo not given) was tested on iBMDM (immortalised mouse bone-marrow-derived macrophages), LPS-stimulated; the reported mitochondrial superoxide is 1.65

Item `Cc1ccc(S(=O)(=O)C=CC#N)cc1` was tested on iBMDM (immortalised mouse bone-marrow-derived macrophages), LPS-stimulated; the reported mitochondrial superoxide is 1.34

Item `CC(C)n1nc(-c2ccc3oc(N)nc3c2)c2c(N)ncnc21` was tested on iBMDM (immortalised mouse bone-marrow-derived macrophages), LPS-stimulated; the reported mitochondrial superoxide is 1.78

###

Measured mitochondrial superoxide by item
Tested on: iBMDM (immortalised mouse bone-marrow-derived macrophages), LPS-stimulated
Experiment: mitochondrial superoxide (MitoSOX fluorescence) fold increase over unstimulated control; higher = more LPS-induced mitochondrial ROS (less inhibition)
Details: inhibitor concentration: 500 nM; LPS: 100 ng/ml; time after LPS: 2 h

Some entries whose results are on file:
compound: O=C(c1ccc(Nc2nccc(-c3cc4ccccc4s3)n2)cc1)N1CCC(N2CCCC2)CC1
mitochondrial superoxide: 1.09
--
compound: COc1cc2nccc(Oc3ccc(NC(=O)Nc4ccc(F)cc4F)c(F)c3)c2cc1OC
mitochondrial superoxide: 1.27
--
compound: Cn1cc(C2=C(c3ccc(Cl)cc3Cl)C(=O)NC2=O)c2ccccc21
mitochondrial superoxide: 1.56

Next, consider the following compound.
Entry under test: `Nc1nccc(Oc2ccc(NC(=O)c3c[nH]cc(-c4ccc(F)cc4)c3=O)cc2F)c1Cl` . Its mitochondrial superoxide was 1.22

###

Tested on: iBMDM (immortalised mouse bone-marrow-derived macrophages), LPS-stimulated
Experiment: mitochondrial superoxide (MitoSOX fluorescence) fold increase over unstimulated control; higher = more LPS-induced mitochondrial ROS (less inhibition)
Settings: inhibitor concentration: 500 nM; LPS: 100 ng/ml; time after LPS: 2 h
assayMetric: mitochondrial superoxide
Could you respond with only the numeric value?

compound: CNC(=O)c1cc(COc2nnc(Nc3ccc(Cl)cc3)c3ccoc23)ccn1 [Telatinib]
assayedSystem: iBMDM (immortalised mouse bone-marrow-derived macrophages), LPS-stimulated
mitochondrial superoxide: 1.33

compound: NCC(=O)Nc1ccc(-n2nc(C(F)(F)F)cc2-c2ccc3c(ccc4ccccc43)c2)cc1
assayedSystem: iBMDM (immortalised mouse bone-marrow-derived macrophages), LPS-stimulated
mitochondrial superoxide: 1.41

compound: Cc1c(CN2CCN(C(=O)[C@H](C)O)CC2)sc2c(N3CCOCC3)nc(-c3cnc(N)nc3)nc12
assayedSystem: iBMDM (immortalised mouse bone-marrow-derived macrophages), LPS-stimulated
mitochondrial superoxide: 1.44

compound: Nc1ccc(C(=O)Nc2cccc(-c3nc(N4CCOCC4)c4oc5ncccc5c4n3)c2)cn1
assayedSystem: iBMDM (immortalised mouse bone-marrow-derived macrophages), LPS-stimulated
mitochondrial superoxide: 1.23

compound: N#CC(=C(/N)Sc1ccccc1N)/C(C#N)=C(\N)Sc1ccccc1N
assayedSystem: iBMDM (immortalised mouse bone-marrow-derived macrophages), LPS-stimulated
mitochondrial superoxide: 1.4

compound: COCCOc1ccc2c(c1)ncn2-c1ccc2cccc(N3CCC(N)CC3)c2n1
assayedSystem: iBMDM (immortalised mouse bone-marrow-derived macrophages), LPS-stimulated
mitochondrial superoxide: 1.19

compound: Cn1cc(-c2cnn3c(N)c(Br)c([C@@H]4CCCNC4)nc23)cn1
assayedSystem: iBMDM (immortalised mouse bone-marrow-derived macrophages), LPS-stimulated
mitochondrial superoxide: 1.4

compound: CO[C@H]1C[C@@H]2CC[C@@H](C)[C@@](O)(O2)C(=O)C(=O)N2CCCC[C@H]2C(=O)O[C@H]([C@H](C)C[C@@H]2CC[C@@H](OCCO)[C@H](OC)C2)CC(=O)[C@H](C)/C=C(\C)[C@@H](O)[C@@H](OC)C(=O)[C@H](C)C[C@H](C)/C=C/C=C/C=C/1C [Everolimus (RAD001)]
assayedSystem: iBMDM (immortalised mouse bone-marrow-derived macrophages), LPS-stimulated
mitochondrial superoxide: 1.42

Next, consider the following compound.
Entry under test: `CNC(=O)c1c(F)cccc1Nc1nc(Nc2cc3c(cc2OC)CCN3C(=O)CN(C)C)nc2[nH]ccc12` . Its mitochondrial superoxide was 1.47
